# System: ATP;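 note: ATP exposure 15 min at 22 °C before imaging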
# Measurement notes: switch fluorescence ratio, 500 uM ATP over buffer (Cy3 cluster intensity, sum of 5 cycles each) (fold (ratio)); higher = stronger signal-on switching upon ATP binding; sequences stand for … in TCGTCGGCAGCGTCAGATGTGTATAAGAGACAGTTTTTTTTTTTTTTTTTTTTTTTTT…TC
# Condition summary: aptamer strand: ATP DNA aptamer (quencher-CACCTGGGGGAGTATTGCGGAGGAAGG + anchor), 100 nM annealed; ATP concentration: 500 uM
Please enter Yes where switch fluorescence ratio is greater than or equal to 1, and No where it is lower.

Before answering, review these 5 worked examples.
[[record]]
sequence_text = "TCTCGTACCT"
qualitative_label = "Yes"

[[record]]
sequence_text = "TCCTGAGTAA"
qualitative_label = "Yes"

[[record]]
sequence_text = "TTCTCAATGT"
qualitative_label = "Yes"

[[record]]
sequence_text = "GGAGGGAACT"
qualitative_label = "Yes"

[[record]]
sequence_text = "GCTGACGGGA"
qualitative_label = "Yes"


Kindly determine if switch fluorescence ratio recorded for TGCCTCAGGG is above or exactly 1.
Yes

Exam item: decide whether the reported switch fluorescence ratio for CGGCTGTACG is at least 1.
Yes

Please indicate if the recorded switch fluorescence ratio for ACACAGCGGC meets or exceeds 1.
Yes

Is reported switch fluorescence ratio greater than or equal to 1 here: TTTTCGAGGT
Yes

Could you please find out whether ACTGTTGTGT has switch fluorescence ratio that meets 1 or exceeds it?
Yes

Form field: switch fluorescence ratio at least 1? Entry: AGTTTTGACC
Yes

In plain terms: is recorded switch fluorescence ratio at least 1 for TTGTGGAGAA ?
Yes

Does switch fluorescence ratio meet or surpass 1 for CACCGGGATG ?
Yes

Textbook exercise: given the entry GTTTTGTGGT , state whether its switch fluorescence ratio is greater than or equal to 1.
No

Textbook exercise: given the entry TAAGTTGGTA , state whether its switch fluorescence ratio is greater than or equal to 1.
No

Determine whether measured switch fluorescence ratio meets or exceeds 1 for CGGGTGGGGG
Yes

Check if switch fluorescence ratio >= 1 (inclusive). Item: CCGGGTGGGT
Yes

Hello, I need to know if TAATTAGGGG has measured switch fluorescence ratio not below 1. Thanks!
Yes

Assess whether reported switch fluorescence ratio for CGAAAGCTTG sits at 1 or higher.
Yes

Item TTTTAAAGTT with switch fluorescence ratio of 1 or above?
No

API: above_or_equal(metric=switch fluorescence ratio, cutoff=1) for item CCAGGGGGTG
Yes

In plain terms: is recorded switch fluorescence ratio at least 1 for TTTCGGCTAT ?
Yes

Is switch fluorescence ratio for GCCGCGGGGA at or above 1?
Yes
